# Species: Rattus norvegicus
# assayComment: DrugMatrix - Regimen: Daily Repeat
# Assay type: toxicity, organism-based, Sprague-Dawley
# Design: regimen Daily Repeat, gender Male, age 6-8 weeks
# experimentalConditions: in vivo, po, 0 mg/kg, 72 h, tissue Plasma, route oral GAVAGE, dose level Control, time 3 day, […]
quantityKind: TOTAL PROTEIN

// solved cases for TOTAL PROTEIN follow
- compound: "CC(CCc1ccc(O)cc1)NCCc1ccc(O)c(O)c1 (stereo not drawn)"
  testValue: "6.7 G/DL"
- compound: "CCn1cc(C(=O)O)c(=O)c2cc(F)c(N3CCNCC3)nc21"
  testValue: "5.72 G/DL"

// query Look at this compound and give its reported TOTAL PROTEIN. CC[C@H](C)C(=O)O[C@H]1C[C@H](O)C=C2C=C[C@H](C)[C@H](CC[C@@H](O)C[C@@H](O)CC(=O)O)[C@H]21
// result 5.63 G/DL

// query One more compound: COc1ncnc(NS(=O)(=O)c2ccc(N)cc2)c1OC
// result 5.77 G/DL

// query What do you get for C#C[C@]1(O)CC[C@H]2[C@@H]3CCc4cc(O)ccc4[C@H]3CC[C@@]21C ?
// result 5.72 G/DL

// query Let us now turn to CC(=O)Nc1nnc(S(N)(=O)=O)s1 [ACETAZOLAMIDE]
// result 5.77 G/DL

// query Same thing, different compound: CC[C@H](C)C(=O)O[C@H]1C[C@@H](C)C=C2C=C[C@H](C)[C@H](CC[C@@H]3C[C@@H](O)CC(=O)O3)[C@H]21
// result 5.47 G/DL

// query And the next one, CC(C)Cc1ccc(CC(=O)O)cc1 ?
// result 6.07 G/DL

====

# Species: Rattus norvegicus
# assayComment: DrugMatrix - Regimen: Daily Repeat
# Format: toxicity, organism-based, Sprague-Dawley
# Parameters: regimen Daily Repeat, gender Male, age 6-8 weeks
# experimentalConditions: in vivo, po, 0 mg/kg, 120 h, tissue Blood, route oral GAVAGE, dose level Control, time 5 day, vehicle 100 % SALINE
Known NEUTROPHIL of a selection of compounds
The figure you give is taken to be in %; do not add the unit.

- compound: "Oc1ccccc1O"
  unitsSymbol: "%"
  NEUTROPHIL: 6.67

// query Entry under review: CC(=O)OCC(CCn1cnc2cnc(N)nc21)COC(C)=O . Reported NEUTROPHIL?
// result 7

// query Moving on to Cc1cc(CC(=O)O)n(C)c1C(=O)c1ccc(Cl)cc1 [ZOMEPIRAC]
// result 6.67

// query Now try CCCc1nn(C)c2c(=O)[nH]c(-c3cc(S(=O)(=O)N4CCN(C)CC4)ccc3OCC)nc12 .
// result 7

====

# Organism: Rattus norvegicus
# assayComment: DrugMatrix - Regimen: Daily Repeat
# Format: toxicity, organism-based, Sprague-Dawley
# Parameters: regimen Daily Repeat, gender Male, age 6-8 weeks
# experimentalConditions: in vivo, po, 100 mg/kg, 120 h, tissue Plasma, route oral GAVAGE, dose level Low, time 5 day, vehicle .5 % CMC
quantityKind: CREATININE (mg/dL)
Answer with a number only, understood to be in mg/dL.

Below, 3 molecules whose answers are already recorded.
- molecule: "Nc1nc2c(c(=O)[nH]1)N(C=O)C(CNc1ccc(C(=O)N[C@@H](CCC(=O)O)C(=O)O)cc1)CN2 (some centres undefined)"
  CREATININE [mg/dL]: 0.21
- molecule: "CC[C@]1(O)CC[C@H]2[C@@H]3CCC4=CCCC[C@@H]4[C@H]3CC[C@@]21C"
  CREATININE [mg/dL]: 0.2
- molecule: "C#C[C@]1(O)CC[C@H]2[C@@H]3CCC4=Cc5oncc5C[C@]4(C)[C@H]3CC[C@@]21C"
  CREATININE [mg/dL]: 0.2

// query # input molecule: CC=Cc1ccc(O)c(OC)c1 ; wanted: its CREATININE
// result 0.21

====

# Species: Rattus norvegicus
# assayComment: DrugMatrix - Regimen: Daily Repeat
# Format: toxicity, organism-based, Sprague-Dawley
# Parameters: regimen Daily Repeat, gender Male, age 6-8 weeks
# experimentalConditions: in vivo, po, 0 mg/kg, 120 h, tissue Plasma, route oral GAVAGE, dose level Control, time 5 day, vehicle 100 % WATER
quantityKind: POTASSIUM
Just the number plus its unit, please.

- molecule: "CC(C)(C)NC[C@H](O)COc1nsnc1N1CCOCC1"
  testValue: "6.07 MEQ/L"
- molecule: "CCN(CC)CC#CCOC(=O)C(O)(c1ccccc1)C1CCCCC1 (centres undefined)"
  testValue: "6.5 MEQ/L"

// query Any idea what its POTASSIUM is? The molecule is OCCO
// result 6.11 MEQ/L

// query Query O=C(O)c1cccnc1 next
// result 6.81 MEQ/L

====

# Species on record: Rattus norvegicus
# assayComment: DrugMatrix - Regimen: Daily Repeat
# Format: toxicity, organism-based, Sprague-Dawley
# Design: regimen Daily Repeat, gender Male, age 6-8 weeks
# experimentalConditions: in vivo, po, 0 mg/kg, 72 h, tissue Blood, route oral GAVAGE, dose level Control, time 3 day, vehicle 100 % WATER
Entries and their measured ABSOLUTE EOSINOPHIL follow.
Provide the reading as a plain figure in CELLS/uL.

- molecule: "CCN(CC)CC#CCOC(=O)C(O)(c1ccccc1)C1CCCCC1 (stereo not given)"
  testValue: 24
- molecule: "CC[C@H]1OC(=O)[C@H](C)[C@@H](O[C@H]2C[C@@](C)(OC)[C@@H](O)[C@H](C)O2)[C@H](C)[C@@H](O[C@@H]2O[C@H](C)C[C@H](N(C)C)[C@H]2O)[C@](C)(OC)C[C@@H](C)C(=O)[C@H](C)[C@@H](O)[C@]1(C)O"
  testValue: 91.5
- molecule: "CCOC(N)=O"
  testValue: 123.17
- molecule: "CCCCCCCCCCCCCCCC[n+]1ccccc1.[Br-]"
  testValue: 58.83
- molecule: "Nc1ccc(S(=O)(=O)Nc2nccs2)cc1"
  testValue: 0
- molecule: "CN1C2CCCC1CC(NC(=O)c1nn(C)c3ccccc13)C2 (stereo not given)"
  testValue: 0

// query Query (molecule): Cc1c(N(C)CS(=O)(=O)[O-])c(=O)n(-c2ccccc2)n1C.[Na+] [DIPYRONE SODIUM] ; field requested: ABSOLUTE EOSINOPHIL
// result 25

// query Repeat for the following molecule: CC(C)(C)NC[C@H](O)COc1nsnc1N1CCOCC1
// result 0

// query Another molecule to check: CCCc1nn(C)c2c(=O)[nH]c(-c3cc(S(=O)(=O)N4CCN(C)CC4)ccc3OCC)nc12
// result 0

// query Query O=C(O)c1cccnc1 next
// result 0

====

# Species: Rattus norvegicus
# assayComment: DrugMatrix - Regimen: Daily Repeat
# Assay type: toxicity, organism-based, Sprague-Dawley
# Design: regimen Daily Repeat, gender Male, age 6-8 weeks
# experimentalConditions: in vivo, ip, 0 mg/kg, 120 h, tissue Blood, route intraperitoneal, dose level Control, time 5 day, vehicle 100 % SALINE
quantityKind: ABSOLUTE SEGMENTED NEUTROPHIL (cells/µL)
Write the value in cells/µL as a bare number.

// query Which ABSOLUTE SEGMENTED NEUTROPHIL value belongs to NC[C@H]1O[C@H](O[C@H]2[C@H](O)[C@@H](O[C@H]3O[C@H](CO)[C@@H](O)[C@H](N)[C@H]3O)[C@H](N)C[C@@H]2N)[C@H](N)C[C@@H]1O ?
// result 1170

====

Recorded LIPASE, one value per entry.
# Organism: Rattus norvegicus
# assayComment: DrugMatrix - Regimen: Daily Repeat
# Assay type: toxicity, organism-based, Sprague-Dawley
# Parameters: regimen Daily Repeat, gender Male, age 6-8 weeks
# experimentalConditions: in vivo, po, 0 mg/kg, 72 h, tissue Plasma, route oral GAVAGE, dose level Control, time 3 day, vehicle 100 % WATER
Give just the numeric value; u/L need not be written.

Examples with answers:
- compound: "CCN(CC)CC#CCOC(=O)C(O)(c1ccccc1)C1CCCCC1 (centres undefined)"
  LIPASE [u/L]: 9.67
- compound: "O=P1(N(CCCl)CCCl)NCCCO1 (centres undefined) [CYCLOPHOSPHAMIDE ANHYDROUS]"
  LIPASE [u/L]: 9.5
- compound: "CC[C@H]1OC(=O)[C@H](C)[C@@H](O[C@H]2C[C@@](C)(OC)[C@@H](O)[C@H](C)O2)[C@H](C)[C@@H](O[C@@H]2O[C@H](C)C[C@H](N(C)C)[C@H]2O)[C@](C)(O)C[C@@H](C)CN(C)[C@H](C)[C@@H](O)[C@]1(C)O"
  LIPASE [u/L]: 10.17

// query Requested field: LIPASE. Item: CCCc1nn(C)c2c(=O)[nH]c(-c3cc(S(=O)(=O)N4CCN(C)CC4)ccc3OCC)nc12
// result 9.17

// query How about this compound: Nc1ccc(S(=O)(=O)Nc2nccs2)cc1
// result 9.5

// query Param item: CN1C2CCCC1CC(NC(=O)c1nn(C)c3ccccc13)C2 (centres undefined)
// result 9.5

// query Next compound up: CC(C)(C)NC[C@H](O)COc1nsnc1N1CCOCC1
// result 9.5

// query Try this compound too: OCCO
// result 9.17

// query Please do the same for Cc1c(N(C)CS(=O)(=O)[O-])c(=O)n(-c2ccccc2)n1C.[Na+] [DIPYRONE SODIUM] as well.
// result 9.33
